- MEASUREMENT DESCRIPTION: soluble fraction after stress (log2 fold change); higher = more stays soluble; pooled small domains, quantitative proteomics
- TEST SETTINGS: stress: pH 4
# soluble fraction (log2) >= 0.1 gives condition met, anything below gives condition not met

[[record]]
seq_string = "HMKSISMSKLRHLLQLYVQGRSKKLISEQTGIARNTLKKYIKEFSEAGLSLEALLALSDKELEDLFVK"
label = "condition met"

[[record]]
seq_string = "HMEDNYYENKINYLFGYLDEADKEISVNSILDFHLAHRTNPEFVFEPKKNTNPLIWKYLSNSNLLY"
label = "condition not met"

[[record]]
seq_string = "HMDGLPYPEAAEEPIAQVARNLGMDATRVSIALQEAKLIFRNLDETLAEIAANNGTTPQVVYDAIRHLEPP"
label = "condition not met"

[[record]]
seq_string = "HMNDVLVGAIPESASGSRLDKVMPSVFPPYSRSQLQVWLKQGRILMGNGIPSPRLIVSGGEVLSLVVPELP"
label = "condition not met"

[[record]]
seq_string = "HMGQDGFIGLEAAKKLVLQKLGLTSAEFIKAELDAEDRKYELELIVDGIEYDFDIDAYSGAFLKQEQETV"
label = "condition met"

[[record]]
seq_string = "HMLDQGTQSRYQIMDGVRALITGDWSSHGAGLVRELSQEVARTSGLTATSERTFFVPFSALS"
label = "condition not met"

[[record]]
seq_string = "HMKVFTEDEMLEKIKEYLSTNSYINRRVMETQFGLRQNIALKWLKHFTEIGVLRKEGERNSPIYFLNN"
label = "condition met"

[[record]]
seq_string = "HMGGLLSVIQKKAINNVKDRYSENAIKSMTKVQLHDLIKAETSRLLDPANAKETPEYQAFLEE"
label = "condition met"

